pIC50: −log10 of the molar value.
As a worked illustration, we turn to pIC50 data collected for Human MTHFD2 (Homo sapiens, UniProt P13995).

{"molecule": "Cn1c(Nc2ncc[nH]2)nc2c1c(=O)n(Cc1cc3c(Cl)cccc3[nH]1)c(=O)n2C [Example 356]", "targetSystem": "Human MTHFD2 (Homo sapiens, UniProt P13995)", "pIC50": "6.00 to 8.00"}
{"molecule": "Cn1c([C@H](N)Cc2ccncc2)nc2c1c(=O)n(Cc1cc3c(Cl)cccc3[nH]1)c(=O)n2C [Example 447]", "targetSystem": "Human MTHFD2 (Homo sapiens, UniProt P13995)", "pIC50": "6.00 to 8.00"}
{"molecule": "CCn1c(=O)n(Cc2ccc(Cl)c(Cl)c2)c(=O)c2c1ncn2C [Example 250]", "targetSystem": "Human MTHFD2 (Homo sapiens, UniProt P13995)", "pIC50": "5.00 to 5.30"}
{"molecule": "Cn1c(NC2CCNC(=O)C2)nc2c1c(=O)n(Cc1ccc(Cl)c(Cl)c1)c(=O)n2C (racemic) [Example 211]", "targetSystem": "Human MTHFD2 (Homo sapiens, UniProt P13995)", "pIC50": "6.00 to 8.00"}
{"molecule": "COc1ccc(Cn2c(=O)c3c(nc(NC[C@H](C)O)n3C)n(C)c2=O)cc1 [Example 34]", "targetSystem": "Human MTHFD2 (Homo sapiens, UniProt P13995)", "pIC50": "< 5.00"}
{"molecule": "Cn1c(Nc2ccnc([C@H]3C[C@H]3C(=O)O)c2)nc2c1c(=O)n(Cc1ccc(Cl)c(Cl)c1)c(=O)n2C (racemic) [Example 332]", "targetSystem": "Human MTHFD2 (Homo sapiens, UniProt P13995)", "pIC50": "6.00 to 8.00"}
{"molecule": "Cn1c(Nc2ccc(C(F)(F)F)nc2)nc2c1c(=O)n(Cc1cc3c(Cl)cccc3[nH]1)c(=O)n2C [Example 382]", "targetSystem": "Human MTHFD2 (Homo sapiens, UniProt P13995)", "pIC50": "6.00 to 8.00"}
{"molecule": "Cn1c(Nc2ccnc([C@H]3C[C@@H]3C(=O)O)c2)nc2c1c(=O)n(Cc1ccc(Cl)c(Cl)c1)c(=O)n2C (single isomer, unassigned) [Example 301]", "targetSystem": "Human MTHFD2 (Homo sapiens, UniProt P13995)", "pIC50": "6.00 to 8.00"}
{"molecule": "Cn1c(NC2(CO)CCCC2)nc2c1c(=O)n(Cc1ccc(C(F)(F)F)cc1)c(=O)n2C [Example 128]", "targetSystem": "Human MTHFD2 (Homo sapiens, UniProt P13995)", "pIC50": "< 5.00"}
{"molecule": "Cn1c(Nc2ccncc2)nc2c1c(=O)n(Cc1cc3c(Cl)ccc(Cl)c3[nH]1)c(=O)n2C [Example 477]", "targetSystem": "Human MTHFD2 (Homo sapiens, UniProt P13995)", "pIC50": "6.00 to 8.00"}
{"molecule": "C[C@H](O)CNc1nc2c(c(=O)n(Cc3ccc(F)c(F)c3)c(=O)n2C)n1C [Example 30]", "targetSystem": "Human MTHFD2 (Homo sapiens, UniProt P13995)", "pIC50": "< 5.00"}
{"molecule": "Cc1ccc2[nH]c(Cn3c(=O)c4c(nc(-n5nccc5N)n4C)n(C)c3=O)cc2c1 [Example 218]", "targetSystem": "Human MTHFD2 (Homo sapiens, UniProt P13995)", "pIC50": "6.00 to 8.00"}
{"molecule": "Cn1c(Nc2ccc(CC(N)=O)cc2)nc2c1c(=O)n(Cc1cc3c(Cl)cccc3[nH]1)c(=O)n2C [Example 431]", "targetSystem": "Human MTHFD2 (Homo sapiens, UniProt P13995)", "pIC50": "6.00 to 8.00"}
{"molecule": "Cn1c(Nc2ccc(N3CCNCC3)cn2)nc2c1c(=O)n(Cc1cc3c(Cl)cccc3[nH]1)c(=O)n2C [Example 392]", "targetSystem": "Human MTHFD2 (Homo sapiens, UniProt P13995)", "pIC50": "6.00 to 8.00"}

====

Target or system Human MTHFD2 (Homo sapiens, UniProt P13995): recorded IC50 listed per item.

{"compound": "Cn1c(N[C@H]2CCC(=O)NC2)nc2c1c(=O)n(Cc1cc3ccccc3[nH]1)c(=O)n2C (single isomer, unassigned) [Example 228]", "targetSystem": "Human MTHFD2 (Homo sapiens, UniProt P13995)", "IC50": "1 to 5 µM"}
{"compound": "Cn1c(NC2(C(=O)O)CCCC2)nc2c1c(=O)n(Cc1ccc(Cl)c(Cl)c1)c(=O)n2C [Example 148]", "targetSystem": "Human MTHFD2 (Homo sapiens, UniProt P13995)", "IC50": "0.01 to 1 µM"}
{"compound": "Cn1c(Nc2ccc3c(c2)C(CC(=O)O)CC3)nc2c1c(=O)n(Cc1ccc(Cl)c(Cl)c1)c(=O)n2C (centres unmarked) [Example 314]", "targetSystem": "Human MTHFD2 (Homo sapiens, UniProt P13995)", "IC50": "0.01 to 1 µM"}
{"compound": "Cn1c(NCC2(O)CCCCC2)nc2c1c(=O)n(Cc1ccc(Cl)c(Cl)c1)c(=O)n2C [Example 106]", "targetSystem": "Human MTHFD2 (Homo sapiens, UniProt P13995)", "IC50": "1 to 5 µM"}
{"compound": "Cn1c(NC2CCCC(C(=O)O)C2)nc2c1c(=O)n(Cc1ccc(Cl)c(Cl)c1)c(=O)n2C (racemic) [Example 114]", "targetSystem": "Human MTHFD2 (Homo sapiens, UniProt P13995)", "IC50": "0.01 to 1 µM"}
{"compound": "Cn1c(/C(=N/O)c2ccncc2)nc2c1c(=O)n(Cc1cc3c(Cl)cccc3[nH]1)c(=O)n2C [Example 468]", "targetSystem": "Human MTHFD2 (Homo sapiens, UniProt P13995)", "IC50": "0.01 to 1 µM"}
{"compound": "Cn1c(NC2CCCC(CO)C2)nc2c1c(=O)n(Cc1ccc(Cl)c(Cl)c1)c(=O)n2C (racemic) [Example 254]", "targetSystem": "Human MTHFD2 (Homo sapiens, UniProt P13995)", "IC50": "0.01 to 1 µM"}
{"compound": "Cn1c(N[C@H]2CCCNC2=O)nc2c1c(=O)n(Cc1cc3ccccc3[nH]1)c(=O)n2C [Example 213]", "targetSystem": "Human MTHFD2 (Homo sapiens, UniProt P13995)", "IC50": "0.01 to 1 µM"}
{"compound": "Cn1c(Nc2cccc([C@@H]3C[C@H]3C(=O)O)n2)nc2c1c(=O)n(Cc1cc3c(Cl)cccc3[nH]1)c(=O)n2C (single isomer, unassigned) [Example 398]", "targetSystem": "Human MTHFD2 (Homo sapiens, UniProt P13995)", "IC50": "0.01 to 1 µM"}
{"compound": "Cn1c(Nc2ccncc2)nc2c1c(=O)n(Cc1[nH]c3ccccc3c1Cl)c(=O)n2C [Example 311]", "targetSystem": "Human MTHFD2 (Homo sapiens, UniProt P13995)", "IC50": "0.01 to 1 µM"}
{"compound": "Cn1c(Nc2ccncc2)nc2c1c(=O)n(Cc1cc3c(C(F)(F)F)cccc3[nH]1)c(=O)n2C [Example 404]", "targetSystem": "Human MTHFD2 (Homo sapiens, UniProt P13995)", "IC50": "0.01 to 1 µM"}
